organism: Homo sapiens; experiment: Protein binding in human plasma; settings: read-out: PPB (converted)
// fraction unbound lookup, one value per entry
Just the number, please.

Example cases with answers are listed next.
Cc1cn(CC(=O)c2ccc(-c3ccc(N4C[C@H](Cn5ccnn5)OC4=O)cc3F)cn2)cn1; 0.31
CN1CCN(CCCC(=O)c2ccc(-c3ccc(N4C[C@H](Cn5ccnn5)OC4=O)cc3F)cn2)CC1; 0.5

Req: Quick one: fraction unbound for Cc1cn(CC(=O)c2ccc(-c3ccc(N4C[C@H](Cn5ccnn5)OC4=O)cc3F)cn2)c(C)n1 ?
Resp: 0.12

----------
assay: Clearance in Wistar rat at 2 mg/kg, iv; format: ADME, organism-based; parameters: dose 2 mg/kg, route intravenous; conditions: in vivo
RESULT TYPE: clearance
State the result as a value with its unit after it.

Example cases with answers are listed next.
Cc1cnc(C)n1CC(=O)c1ccc(-c2ccc(N3C[C@H](Cn4ccnn4)OC3=O)cc2F)cn1; 10 mL/min/kg
Cc1cn(CC(=O)c2ccc(-c3ccc(N4C[C@H](Cn5ccnn5)OC4=O)cc3F)cn2)c(C)n1; 13 mL/min/kg

Here is another compound to look at.
Req: Quick one: clearance for CCc1nccn1CC(=O)c1ccc(-c2ccc(N3C[C@H](Cn4ccnn4)OC3=O)cc2F)cn1 ?
Resp: 23 mL/min/kg
